Test system: RARg homodimer (NR concentration 270 nM)
Assay: PBM binding z-score (relative to random genomic background probes); higher = stronger binding; sequences stand for … in GC…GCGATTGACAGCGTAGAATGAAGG
Label scheme, based on PBM binding z-score: low end: < 2; middle: ≥ 2 and < 4; high end: ≥ 4

Would you mind sorting CTACCAAGGTGAACAAGGTCGTTGATTACTATTC into the appropriate category?
low end

And the next one, TCGAGAAGGTTACCAATGGGGCATTCAGCTTTCT ?
low end

Another sequence to check: ACATGTAGGTTATCGGGTCATTCAGTTTGCGCAT
middle

Same for TCAAGTAGGTTAGGGGCATTCAGAATGGCGTCGA
low end

Same again, this time with AATACAGTGTCATCGTAGGCCAGAGTACGCACAG
low end

Also, CAAACTAGGTCACAGAGTTCAAAGTCCGTGCGTA please.
high end

Please do the same for CAAACTACGTCACGAAAGGTCAAAGTCGAATGAC as well.
high end

Try this sequence next: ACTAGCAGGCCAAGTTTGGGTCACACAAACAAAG
low end

Could you do the same for TCTAGCAGGCCAGAGGGTCACTCGAGAGGTACGG , please?
middle

Then what about the sequence CCTAGCAGGTCAATCTGGGTCACTCAAGGCTTGA ?
high end

What do you have for TTACCGAGGTGAGCTGAGGTCGTTGATCCAACTC ?
low end

Another sequence: CCTACTTGGCCATCAGGTCATTGATATCAACGTT
middle

Now consider CGAACTAGGTCAGAAGAGGACAGTGAAGGATGAT .
middle
